Tested on: SNB-19 CNS
method.notes: NCI tumour cell line growth inhibition, 48 h
Entries and their measured TGI follow.

In the examples that follow, each entry is paired with its recorded TGI.
INSERT INTO measurements (compound, assay_system, value_reported) VALUES
  ('O=C(c1cccs1)N(C(=S)N1CCN(c2ccccn2)CC1)C1CCCCC1', 'SNB-19 CNS', '> 100 µM'),
  ('CN(C)C(=O)Nc1cc2c3c(c1)CCCN3CCC2', 'SNB-19 CNS', '> 10 µM');

QUERY: Given the entry COC1CC(OC2CCC3(C)C(CCC45CCC(C6=CC(=O)OC6)C(C)(CCC43)C5=O)C2)OC(C)C1O (stereo not given) , what TGI was observed with SNB-19 CNS?
RESULT: 63.6 µM

QUERY: Also, `Cn1nc(-c2ccccc2)nc1[N+](=O)[O-]` please.
RESULT: > 10 µM

QUERY: Also, `O=P([O-])(O)OP(=O)([O-])O.[NH-][C@@H]1CCCC[C@H]1[NH-].[Pt+4]` please.
RESULT: > 100 µM

###

Test system: CCRF-CEM leukemia
method.notes: NCI tumour cell line growth inhibition, 48 h
Where a SMILES comes first, the peptide text is derived from it. [ ]: non-standard residue; d: D form. The star is where a group is joined. ξ: configuration not given here. NMeN = CN[C@@H](CC(N)=O)C(=O)O; NMeV = CN[C@H](C(=O)O)C(C)C; ξNMeV = CNC(C(=O)O)C(C)C; Boc = CC(C)(C)OC(=O)*; ξNMeA = CNC(C)C(=O)O
Entries and their measured GI50 follow.

In the examples that follow, each entry is paired with its recorded GI50.
INSERT INTO results (molecule, value_reported) VALUES
  ('COC(=O)C(C)N(C)C(=O)[C@H](CC(N)=O)N(C)C(=O)[C@@H]1CCCN1C(=O)[C@H](C(C)C)N(C)C(=O)C(C(C)C)N(C)C(=O)[C@@H](NC(=O)OC(C)(C)C)C(C)C (some centres not stated) (Boc-V[ξNMeV][NMeV]P[NMeN][ξNMeA]-OMe)', '65.7 µM'),
  ('Cc1cc(N2CCCC2)nc(NC2CCCC(Nc3ccnc4cc(Cl)ccc34)C2)n1 (configuration not stated)', '0.408 µM'),
  ('c1cn2cc(-c3ccc4ncn(C5CCCCC5)c4c3)nc(-c3ccc4c(c3)ncn4C3CCCCC3)c2n1', '1.69 µM');

QUERY: // returns reported GI50 for input `NC1CCCCC1N.O=S(=O)([O-])CCCN1CCOCC1.O=S(=O)([O-])CCCN1CCOCC1.[Pt+4]`
RESULT: 5.16 µM

QUERY: Also, `NC(=N\N=C/c1cccc([N+](=O)[O-])c1)/C(N)=N\N=C/c1cccc([N+](=O)[O-])c1` please.
RESULT: > 100 µM

QUERY: Also, `O=C(CC12CC3CC(CC(C3)C1)C2)NCCOCCOCCOCCNC(=O)c1cc2c(o1)C(=O)c1ccccc1C2=O` please.
RESULT: 2.72 µM

QUERY: Also, C=CCN(CC=C)C(=O)c1cc(C)nc2c1c(=O)n(-c1ccccc1)c(=O)n2CC(O)CN1CCN(c2ncccn2)CC1 (configuration not stated) please.
RESULT: > 100 µM

###

System: SNB-19 CNS
method.notes: NCI tumour cell line growth inhibition, 48 h
readout.type: TGI

In the examples that follow, each entry is paired with its recorded TGI.
INSERT INTO assay_data (compound, readout_type, value_reported) VALUES
  ('CC(=O)OCC1OC(N2C(C)=C(C(C)=O)C(c3ccco3)C(C#N)=C2S)C(OC(C)=O)C(OC(C)=O)C1OC(C)=O (centres undefined)', 'TGI', '> 100 µM'),
  ('CC(=O)N(CCc1ccccc1)C(C#N)c1ccc(OCCCCCCCCCCOc2ccc(C(C#N)N(CCc3ccccc3)C(C)=O)cc2)cc1 (centres undefined)', 'TGI', '88.1 µM'),
  ('COC(=O)C12CC(c3ccccc31)C1C(=O)OC(=O)C12 (centres undefined)', 'TGI', '> 100 µM');

Let us examine a further case.
QUERY: // returns reported TGI for input `CC[Si](CC)(CC)OC[C@]1([C@@H]2COC(C)(C)O2)CC=CC(=O)O1`
RESULT: > 100 µM

###

System: MOLT-4 leukemia
method.notes: NCI tumour cell line growth inhibition, 48 h
readout.type: TGI

In the examples that follow, each entry is paired with its recorded TGI.
INSERT INTO measurements (compound, value_reported) VALUES
  ('Cc1cccc(C)c1NC(=O)CCc1nnc2s/c(=C\c3ccc(Cl)cc3)c(=O)n12', '> 100 µM'),
  ('O=c1[nH]c2c3ccccc3ccc2c2cc3c(cc12)OCO3', '> 100 µM'),
  ('Cc1ccc(Nc2nc(N)nc3c2ncn3C2OC(CO)C(O)C2O)cc1 (stereo not given)', '> 100 µM'),
  ('CCn1c(O)c(C=N)c(=O)n(CC)c1=O', '> 100 µM');

QUERY: // returns reported TGI for input `O=C(C[n+]1ccccc1)N=N/C(C(=O)Nc1c(Cl)c(O)c2ccccc2c1O)=C1/C(=O)Oc2cc(O)ccc2C1=O`
RESULT: > 100 µM

QUERY: Also, `Cc1nn(-c2ccccc2)c2[nH]c(=S)cnc12` please.
RESULT: > 100 µM

QUERY: Also, COC(=O)C(=O)C(C(=O)C(=O)Nc1ccccc1C(C)=O)c1nc2ccc(C(=O)c3ccccc3)cc2[nH]c1=O (stereo not given) please.
RESULT: > 100 µM

QUERY: Also, `NC(N)=N/N=C/c1c(-c2ccc([N+](=O)[O-])cc2)nc2n1CCS2` please.
RESULT: > 33 µM

QUERY: Also, CC1(C)CCCCCCC2OC2CCCCCC(C)(C)C1=O (stereo not given) please.
RESULT: 61.2 µM

QUERY: Also, `OC(C/C(=N\N1CCCCC1)c1cccs1)(C(F)(F)F)C(F)(F)F` please.
RESULT: > 10 µM

QUERY: Also, CCOC(=O)C(NC(=O)CC(C)C)(Nc1ccc(S(=O)(=O)Nc2nc(C)cc(C)n2)cc1)C(F)(F)F (stereo not given) please.
RESULT: > 100 µM

###

Tested on: OVCAR-3 ovarian
method.notes: NCI tumour cell line growth inhibition, 48 h; in the data active = GI50 below about 0.43 µM; inactive = the rest
Pick from active, inactive when you respond.

Some solved cases for reference:
INSERT INTO measurements (compound, discrete_label) VALUES
  ('CCCN1CCN(c2ccc3nc(-c4ccc5nc(-c6cc(OC)ccc6OC)[nH]c5c4)[nH]c3c2)CC1', 'inactive'),
  ('O=C(Nc1cc[c]([Sb](=[O])([OH])[OH])cc1)c1ccccc1', 'inactive'),
  ('COc1cc2c(cc1OCCCCCCN1CCN(c3ncnc4ccccc34)CC1)N=CC1CCCN1C2=O (stereo unspecified)', 'active'),
  ('CC[Si](CC)(CC)OC[C@]1([C@@H]2COC(C)(C)O2)CC=CC(=O)O1', 'inactive'),
  ('COc1ccc2c(CN3CCC[C@H]3C(=O)O)cc3cc4c(cc3c2c1)OCO4', 'inactive');

Consider now this further compound.
QUERY: Write down the call the test reported for this compound. Item: `CC/C(=C(/CC)c1ccc(O)cc1)c1ccc([O-])cc1.CC/C(=C(/CC)c1ccc(O)cc1)c1ccc([O-])cc1.O=C([CH-]C(=O)c1ccccc1)c1ccccc1.O=C([CH-]C(=O)c1ccccc1)c1ccccc1.[Ti+4]`
RESULT: inactive

###

Entries and their measured TGI follow.
System: MCF7 breast
method.notes: NCI tumour cell line growth inhibition, 48 h
Give the value, in units of µM, as a plain number.

INSERT INTO results (molecule, readout_type, value_reported) VALUES
  ('CCC1=CC2Cc3nc4cc(Cl)ccc4c(N)c3C(C1)C2 (stereo not drawn)', 'TGI', 17.6);

Let us examine a further case.
QUERY: Given the entry `NC(N)=N/N=C/c1c(-c2ccc([N+](=O)[O-])cc2)nc2n1CCS2` , what TGI was observed with MCF7 breast?
RESULT: 30.3

###

Entries and their measured TGI follow.
Test system: IGROV1 ovarian
method.notes: NCI tumour cell line growth inhibition, 48 h

In the examples that follow, each entry is paired with its recorded TGI.
INSERT INTO results (compound, value_reported) VALUES
  ('COC1=C(N2CC2)C(=O)c2nc3n(c2C1=O)CCC3', '3.15 µM'),
  ('COc1ccc2c(c1)N=C1CSC(c3cccc(Br)c3)N1C2 (stereo not drawn)', '80.7 µM'),
  ('CN(C)C(=O)Nc1cc2c3c(c1)CCCN3CCC2', '> 10 µM'),
  ('Nc1nc(=S)[nH]c(C(=O)Nc2ccc(Cl)c(Cl)c2)c1-c1ccc(Cl)cc1', '> 100 µM'),
  ('O=C(O)c1ccc(Nc2nc3ccccc3nc2-c2cccs2)cc1', '> 100 µM');

QUERY: // returns reported TGI for input CCOC(=O)C1C(c2ccc(OC)cc2)c2c([nH][nH]c2=O)CC1(O)OCC (stereo not drawn)
RESULT: > 100 µM

QUERY: Also, `O=C1C(=O)c2ccccc2C(O)=C1CN(CCCl)CCCl` please.
RESULT: 77.9 µM

QUERY: Also, CC1=CC(=O)C(=O)C2=C1OC1(C2)C(C)CCC2C3(C)CCC(O)C(C)(C)C3CCC21C (stereo not drawn) please.
RESULT: 34.2 µM

QUERY: Also, CCCCCCCCC/C=C1\CC(CO)(COC(=O)C2CCCCC2)OC1=O (stereo not drawn) please.
RESULT: 37.7 µM

QUERY: Also, NC(CCP(=O)(O)CCC1C=CC=CC1)C(=O)O (stereo not drawn) please.
RESULT: > 100 µM

meta.source: PubChem BioAssay (NCI)
